Test system: Target C CJ mRNA
Assay procedure: Gene panel canonical junction qPCR splicing assay, Target C
Type: cell-based
Experimental parameters: Table 4, read-out: Target C IC50 (decrease in CJ mRNA levels)
pIC50: −log10 of the molar value.
For each entry below, report its pIC50 value.

[Q] Entry under review: Cn1cc2cc(-c3ccc4cc(C5CCNCC5)c(F)cc4n3)c(O)cc2n1 . Reported pIC50?
[A] < 5.00

[Q] Given the compound Cc1nc2c(F)c(O)c(-c3ccc4nc(N5CC[C@@H](NC6CC6)C5)ccc4n3)cc2o1 (single isomer, unassigned) , what is its reported pIC50?
[A] > 7.00

[Q] # input compound: Cc1nc2c(C)c(O)c(-c3ccc4nc(N5CCC(NC6CC6)C5)ccc4n3)cc2o1 (single isomer, unassigned) [Compound 216] ; wanted: its pIC50
[A] > 7.00

[Q] Need pIC50 of Cc1nc2cc(O)c(-c3ccc4nc(N5CCC(N)C5)ccc4n3)cc2o1 (stereo not shown) , thanks.
[A] 6.00 to 7.00

[Q] For the compound shown here, Cn1cc2cc(-c3ccc4nc(N5CCNC(C)(C)C5)ccc4n3)c(O)cc2n1 , give the reported pIC50.
[A] 5.00 to 6.00

[Q] Look up pIC50 for this compound: Cn1cc2cc(-c3ccc4nc(C5CCNCC5)ccc4n3)ccc2n1
[A] 6.00 to 7.00

[Q] Which value of pIC50 has been reported for COc1cc2nc(C)oc2cc1-c1ccc2nc(N3CCC(NC(C)(C)C)C3)ccc2n1 (stereo not shown) in the records?
[A] 5.00 to 6.00

[Q] For the compound Cn1cc2cc(-c3ccc4nc(N5CC[C@H](N[C@H]6C[C@H](F)C6)C5)ccc4n3)c(O)cc2n1 , what pIC50 is on record?
[A] 6.00 to 7.00

[Q] Requested field: pIC50. Item: Cc1nc2c(C)c(O)c(-c3ccc4nc(N5CCC(NC6CCC6)C5)ccc4n3)cc2o1 (stereo not shown) [Compound 235]
[A] > 7.00

[Q] State the recorded pIC50 for this entry: Cn1cc2nc(-c3ccc4nc(C5CCNCC5)ccc4n3)c(F)cc2n1
[A] 5.00 to 6.00

[Q] Endpoint output: pIC50 of CN1CCC(N(C)c2ccc3nc(-c4cc5cn(C)nc5cc4O)ccc3n2)CC1 . Value?
[A] > 7.00

[Q] I would be grateful if you could share the reported pIC50 for Cn1cc2cc(-c3ccc4nc(N5CC[C@@H](NCC6CC6)C5)ccc4n3)c(O)cc2n1 .
[A] 6.00 to 7.00

[Q] If you can, please state the reported pIC50 value of Cc1nc2cc(O)c(-c3ccc4nc(N5CCC(NC6CCC6)C5)ccc4n3)cc2o1 (single isomer, unassigned) [Compound 230] .
[A] 6.00 to 7.00

[Q] What does the data say about its pIC50? Entry: Cc1nc2cc(O)c(-c3ccc4nc(N5CC[C@@H](NC6(C)CC6)C5)ccc4n3)cc2o1 (single isomer, unassigned)
[A] 6.00 to 7.00

[Q] Requested read-out: pIC50. Entry: Cn1cc2nc(-c3ccc4nc(C5CCNCC5)ccc4n3)ccc2n1
[A] 6.00 to 7.00

[Q] Suppose we examine the compound Cc1cn2cc(-c3ccc4nc(N5CCC(NC(C)(C)C)C5)ccc4n3)nc(C)c2n1 (stereo not shown) ; what pIC50 value has been reported?
[A] 5.00 to 6.00

----------
For each of the compounds below, state its IC50.
Test system: Target C CJ mRNA
Assay procedure: Gene panel canonical junction qPCR splicing assay, Target C
Type: cell-based
Experimental parameters: Table 4, read-out: Target C IC50 (decrease in CJ mRNA levels)
Structures can show the parent of a compound that is named as a salt.

[Q] Can you look up IC50 on Target C CJ mRNA for Cc1c(O)c(-c2ccc3nc(C4CCNCC4)ccc3n2)cc2cn(C)nc12 ?
[A] < 100 nM

[Q] Field: IC50 (Target C CJ mRNA). Entry: Cn1cc2cc(-c3ccc4nc(N5CC[C@H](NC(C)(C)C)C5)ccc4n3)c(O)cc2n1
[A] < 100 nM

[Q] Reported IC50 for Target C CJ mRNA, given Cc1c(O)c(-c2ccc3nc(N4CCC(NC(C)(C)C)C4)ccc3n2)cc2cn(C)nc12 (centres unmarked) [Compound 191, hydrochloride] ?
[A] > 10000 nM

[Q] Identify the measured IC50 of Cc1cn2nc(-c3ccc4nc(N5CCC(NC(C)(C)C)C5)ccc4n3)c(O)c2c(C)n1 (centres unmarked) for Target C CJ mRNA.
[A] < 100 nM

[Q] So what IC50 did Cc1cn2cc(-c3ccc4nc(C5CCNCC5)ccc4n3)c(O)cc2n1 get with Target C CJ mRNA?
[A] > 10000 nM

[Q] So what IC50 did Cn1cc2c(O)c(-c3cc4ccc(C5CCNCC5)nc4cn3)ccc2n1 get with Target C CJ mRNA?
[A] 1000 to 10000 nM

[Q] Test system Target C CJ mRNA; read-out IC50; what value for Cc1nc2cc(O)c(-c3ccc4nc(C5CCNCC5)ccc4n3)cc2s1 ?
[A] 1000 to 10000 nM

[Q] Please provide the recorded IC50 for Cn1cc2cc(-c3ccc4nc(N5CCC(NC(C)(C)C)C5)ccc4n3)c(O)cc2n1 (centres unmarked) , tested on Target C CJ mRNA.
[A] < 100 nM

[Q] # returns recorded IC50 (system: Target C CJ mRNA) for Cc1nc2c(F)c(O)c(-c3ccc4nc(N5CC[C@H](NC(C)(C)C)C5)ccc4n3)cc2o1 (single isomer, unassigned)
[A] < 100 nM

[Q] API: value(readout= IC50, system= Target C CJ mRNA, query= Cn1cc2cc(O)c(-c3ccc4nc(C5CCNCC5)ccc4n3)cc2n1 )
[A] 1000 to 10000 nM

[Q] Target C CJ mRNA / IC50 / Cc1nc2c(F)c(O)c(-c3ccc4nc(N5CC[C@H](NC6CC6)C5)ccc4n3)cc2o1 (single isomer, unassigned) : value?
[A] < 100 nM

[Q] Fill in the recorded IC50 for this compound, with Target C CJ mRNA as test system: Cn1cc2cc(-c3ccc4nc(N5CCN6CCCC6C5)ccc4n3)c(O)cc2n1 (centres unmarked)
[A] 1000 to 10000 nM

[Q] Form: Entry = Cn1cc2cc(-c3ccc4nc(N5CC[C@@H](NC6COC6)C5)ccc4n3)c(O)cc2n1 | System = Target C CJ mRNA | IC50 = ____
[A] 1000 to 10000 nM

[Q] Query for Target C CJ mRNA: what IC50 does the record show for Cn1cc2cc(-c3ccc4nc(N5CC[C@@H](NC(C)(C)C)C5)ccc4n3)c(O)cc2n1 ?
[A] < 100 nM

[Q] Value wanted: IC50 (Target C CJ mRNA) of entry Cn1cc2cc(-c3ccc4cc(C5CCNCC5)ccc4n3)c(O)c(F)c2n1
[A] < 100 nM

[Q] Form field: IC50 recorded for CN1CC2(C1)CN(c1ccc3nc(-c4cc5cn(C)nc5cc4O)ccc3n1)C2 with Target C CJ mRNA (enter value)
[A] < 100 nM

[Q] Give Target C CJ mRNA IC50 for Cn1cc2nc(-c3ccc4nc(N5CCC(NC(C)(C)C)C5)ccc4n3)c(F)cc2n1 (centres unmarked)
[A] 1000 to 10000 nM

[Q] Can you look up IC50 on Target C CJ mRNA for Cn1cc2c(O)c(-c3cc4ccc(C5CCNCC5)nc4cn3)cc(Br)c2n1 ?
[A] > 10000 nM

[Q] What is its IC50 for Target C CJ mRNA? Entry: CN1CCC(c2ccc3nc(-c4cc5cn(C)nc5cc4O)ccc3n2)CC1
[A] 100 to 1000 nM

[Q] Observed IC50 on Target C CJ mRNA for Cc1cn2nc(-c3ccc4nc(C5CCNCC5)ccc4n3)c(O)c2c(C)n1 , please.
[A] < 100 nM

----------
System: HTT mRNA
Assay procedure: Splicing assay (RT-qPCR) of HTT mRNA alternative junction (AJ) and canonical junction (CJ)
Format: cell-based
Experimental parameters: decrease in CJ mRNA; A673 or K562 cells, 24 hours; read-out: HTT CJ IC50
Structures can show the parent of a compound that is named as a salt.
Property measured: IC50

[Q] Record Cn1cc2cc(-c3ccc4nc(N5CC[C@@H](NCC(F)(F)F)C5)ccc4n3)c(O)cc2n1 (stereo in doubt) : what is its IC50 with HTT mRNA?
[A] > 10 µM

[Q] Any idea what IC50 came out for Cn1cc2cc(-c3ccc4nc(N5CCNC6(CC6)C5)ccc4n3)c(O)cc2n1 on HTT mRNA?
[A] 1 to 10 µM

[Q] Form entry - test system: HTT mRNA; read-out: IC50; compound: COc1cc2ccncc2cc1-c1ccc2nc(N3CCC(NC(C)(C)C)C3)ccc2n1 (stereo not drawn)
[A] > 10 µM

[Q] Request body: readout IC50, system HTT mRNA, query CCNC1CCN(c2ccc3nc(-c4cc5cn(C)nc5cc4O)ccc3n2)CC1 . Return the value.
[A] 1 to 10 µM

[Q] So what IC50 did Cn1cc2cc(-c3ccc4nc(C5CCNCC5)ccc4n3)c(O)c(F)c2n1 get with HTT mRNA?
[A] < 0.1 µM

[Q] Return IC50 measured with HTT mRNA given this compound: Cn1cc2cc(-c3ccc4nc(N5CC[C@@H](N[C@H]6C[C@H](F)C6)C5)ccc4n3)c(O)cc2n1
[A] < 0.1 µM

[Q] Report IC50 for CCN1CCC(c2ccc3nc(-c4cc5cn(C)nc5cc4O)ccc3n2)CC1 tested on HTT mRNA.
[A] 0.1 to 1 µM

[Q] What value of IC50 on HTT mRNA does Cn1cc2cc(-c3ccc4nc(N5CC[C@@H](NC(C)(C)C)C5)ccc4n3)c(O)cc2n1 have?
[A] < 0.1 µM

[Q] Record lookup: for HTT mRNA, what IC50 belongs to Cn1cc2cc(-c3ccc4nc(N5CC[C@H](NC6(C)CC6)C5)ccc4n3)c(O)c(F)c2n1 (single isomer, unassigned) ?
[A] < 0.1 µM

[Q] Give HTT mRNA IC50 for Cc1nc2cc(O)c(-c3ccc4nc(C5CCNCC5)ccc4n3)cc2o1
[A] < 0.1 µM

[Q] Record Cc1nc2cc(O)c(-c3ccc4nc(N5CC[C@H](NC(C)(C)C)C5)ccc4n3)cc2o1 : what is its IC50 with HTT mRNA?
[A] < 0.1 µM

[Q] Give HTT mRNA IC50 for CN(C)C1CCN(c2ccc3nc(-c4cc5cn(C)nc5cc4O)ccc3n2)CC1
[A] 1 to 10 µM

[Q] Give recorded IC50 with HTT mRNA for the following compound: Cc1c(O)c(-c2ccc3nc(N4CCC(NC(C)(C)C)C4)ccc3n2)cc2cn(C)nc12 (stereo not drawn) [Compound 191, hydrochloride]
[A] < 0.1 µM

[Q] // map Cn1cc2cc(-c3ccc4nc(N5CCC6(CCN6)C5)ccc4n3)c(O)cc2n1 (stereo not drawn) to recorded IC50 (system: HTT mRNA)
[A] 0.1 to 1 µM

[Q] # query: IC50 | item C[C@@H]1CC(c2ccc3nc(-c4cc5cn(C)nc5cc4O)ccc3n2)C[C@H](C)N1 (stereo partly drawn) | system: HTT mRNA
[A] 0.1 to 1 µM

[Q] Provide the documented IC50 with HTT mRNA as the system for C[C@H]1C[C@@H](c2ccc3nc(-c4cc5cn(C)nc5cc4O)ccc3n2)CCN1 (relative stereo)
[A] < 0.1 µM

[Q] Observed IC50 on HTT mRNA for Cc1nc2c(F)c(O)c(-c3ccc4nc(N5CC[C@H](NC6CC6)C5)ccc4n3)cc2o1 (single isomer, unassigned) , please.
[A] < 0.1 µM

[Q] Item Cc1cn2nc(-c3ccc4nc(C5CCNCC5)ccc4n3)c(O)c2c(C)n1 with HTT mRNA - IC50?
[A] < 0.1 µM

[Q] HTT mRNA / IC50 / Cc1c(O)c(-c2ccc3nc(N4CC[C@H](NC5(C)CC5)C4)ccc3n2)cc2cn(C)nc12 (single isomer, unassigned) : value?
[A] < 0.1 µM

[Q] Query IC50 on HTT mRNA for Cn1cnc2cc(-c3ccc4nc(N5CCC(NC(C)(C)C)C5)ccc4n3)c(O)cc2c1=O (stereo not drawn)
[A] > 10 µM

[Q] What IC50 appears in the records for this compound with HTT mRNA? Cc1cc(=O)c2cc(O)c(-c3ccc4nc(N5CCC(NC(C)(C)C)C5)ccc4n3)cc2o1 (stereo not drawn)
[A] > 10 µM

[Q] Missing value: IC50, HTT mRNA, entry Cc1c(O)c(-c2ccc3nc(N4CCC(NC5(C)CC5)C4)ccc3n2)cc2cn(C)nc12 (racemic) . Fill in?
[A] < 0.1 µM

[Q] Lab note: need IC50 with HTT mRNA for entry Cn1cc2cc(-c3ccc4nc(N5CC[C@@H](NC6COC6)C5)ccc4n3)c(O)cc2n1 , please look it up.
[A] 0.1 to 1 µM

[Q] Give the reported IC50 for Cn1cc2cc(-c3ccc4nc(N5CCC(NC(C)(C)C)C5)ccc4n3)c(O)c(F)c2n1 (stereo not drawn) (system: HTT mRNA).
[A] < 0.1 µM

[Q] Lab note: need IC50 for Cc1nc2cc(O)c(-c3ccc4nc(N5CCC(NC6CCC6)C5)ccc4n3)cc2o1 (single isomer, unassigned) [Compound 229] on HTT mRNA, anyone have it?
[A] < 0.1 µM

[Q] Write down the reported IC50 of Cn1cc2cc(-c3ncc4nc(C5CCNCC5)ccc4n3)c(O)cc2n1 , test system: HTT mRNA.
[A] 0.1 to 1 µM

[Q] Item Cn1cc2cc(-c3ccc4nc(N5CCC56CCNCC6)ccc4n3)c(O)cc2n1 with HTT mRNA - IC50?
[A] 0.1 to 1 µM

[Q] HTT mRNA / IC50 / Cc1nc2c(F)c(O)c(-c3ccc4nc(N5CC[C@@H](NC(C)(C)C)C5)ccc4n3)cc2o1 (single isomer, unassigned) : value?
[A] < 0.1 µM

[Q] Give recorded IC50 with HTT mRNA for the following compound: CCN[C@H]1CCN(c2ccc3nc(-c4cc5cn(C)nc5cc4O)ccc3n2)C1
[A] < 0.1 µM

[Q] Which IC50 is reported with HTT mRNA for this entry: Cc1nc2c(C)c(O)c(-c3ccc4nc(N5CCC(NC6CC6)C5)ccc4n3)cc2o1 (single isomer, unassigned) [Compound 216] ?
[A] < 0.1 µM

FYI, the data here is from patent US20240002375A1.
